SYSTEM: T1, Human CXCR2 (human, UniProt P25025 1-360)
T1 sequence: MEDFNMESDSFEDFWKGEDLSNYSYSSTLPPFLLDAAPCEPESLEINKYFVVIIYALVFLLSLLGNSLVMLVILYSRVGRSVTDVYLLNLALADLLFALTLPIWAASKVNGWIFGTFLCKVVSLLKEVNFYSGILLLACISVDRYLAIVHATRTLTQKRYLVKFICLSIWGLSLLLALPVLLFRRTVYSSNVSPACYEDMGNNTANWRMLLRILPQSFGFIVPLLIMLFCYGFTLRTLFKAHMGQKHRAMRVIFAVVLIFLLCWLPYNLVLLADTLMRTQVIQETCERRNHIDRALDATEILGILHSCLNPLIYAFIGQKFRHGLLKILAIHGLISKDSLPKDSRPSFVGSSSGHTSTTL
ASSAY PROCEDURE: cell-based or functional assay
PROPERTY: [35S]GTPγS % inhibition of max, IL-8 (%)
Only the number, expressed in %, is required.

Enquiry: Consider the binder CXCR20021 (bispecific antibody, not shown: small tags and cut ends) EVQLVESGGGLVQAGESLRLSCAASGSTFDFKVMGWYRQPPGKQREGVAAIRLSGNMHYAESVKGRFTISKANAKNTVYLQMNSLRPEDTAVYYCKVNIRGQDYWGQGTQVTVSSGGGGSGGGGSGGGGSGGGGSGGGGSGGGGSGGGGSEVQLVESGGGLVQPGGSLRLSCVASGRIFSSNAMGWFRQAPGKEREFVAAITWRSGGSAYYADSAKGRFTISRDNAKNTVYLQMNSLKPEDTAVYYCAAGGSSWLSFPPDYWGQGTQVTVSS and give its measured [35S]GTPγS % inhibition of max, IL-8.
Return: 100
